The compounds listed here are annotated with their activity coefficient.
- test-protocol: activity coefficient (dimensionless); of the first substance listed, at infinite dilution; xn = mol fraction of the nth substance listed
- run-conditions: 322.85 K; Liquid; Chromatography; x1 = 0
Answer with the value's number alone.

CCCCC=O [pentanal] + CCCCCC[n+]1ccn(C)c1.O=S(=O)([N-]S(=O)(=O)C(F)(F)F)C(F)(F)F; 1.08
Cc1ccccc1 [toluene] + CCCCCC[n+]1ccn(C)c1.O=S(=O)([N-]S(=O)(=O)C(F)(F)F)C(F)(F)F; 1.06
CCCCCCCCCCC [undecane] + CCCCCC[n+]1ccn(C)c1.O=S(=O)([N-]S(=O)(=O)C(F)(F)F)C(F)(F)F; 34.1
CCCCCCC [heptane] + CCCCCC[n+]1ccn(C)c1.O=S(=O)([N-]S(=O)(=O)C(F)(F)F)C(F)(F)F; 9.69

Let me know recorded activity coefficient for CC(C)=O [acetone] + CCCCCC[n+]1ccn(C)c1.O=S(=O)([N-]S(=O)(=O)C(F)(F)F)C(F)(F)F , thanks.
0.362

Let me know recorded activity coefficient for C=CCCCCCCCC [1-decene] + CCCCCC[n+]1ccn(C)c1.O=S(=O)([N-]S(=O)(=O)C(F)(F)F)C(F)(F)F , thanks.
15.2

Let me know recorded activity coefficient for C1CCCCC1 [cyclohexane] + CCCCCC[n+]1ccn(C)c1.O=S(=O)([N-]S(=O)(=O)C(F)(F)F)C(F)(F)F , thanks.
4.9

Let me know recorded activity coefficient for C1=CCCCC1 [cyclohexene] + CCCCCC[n+]1ccn(C)c1.O=S(=O)([N-]S(=O)(=O)C(F)(F)F)C(F)(F)F , thanks.
3.08

Let me know recorded activity coefficient for CCC(C)O (stereo unspecified) [butan-2-ol] + CCCCCC[n+]1ccn(C)c1.O=S(=O)([N-]S(=O)(=O)C(F)(F)F)C(F)(F)F , thanks.
1.66

Let me know recorded activity coefficient for CC(C)(C)O [2-methylpropan-2-ol] + CCCCCC[n+]1ccn(C)c1.O=S(=O)([N-]S(=O)(=O)C(F)(F)F)C(F)(F)F , thanks.
1.34

Let me know recorded activity coefficient for CCc1ccccc1 [ethylbenzene] + CCCCCC[n+]1ccn(C)c1.O=S(=O)([N-]S(=O)(=O)C(F)(F)F)C(F)(F)F , thanks.
1.55

###

- test-protocol: activity coefficient (dimensionless); of the first substance listed, at infinite dilution; xn = mol fraction of the nth substance listed
- run-conditions: 333.25 K; Liquid; Chromatography; x1 = 0
measure-name: activity coefficient

Take a look at these entries with their results.
CC(C)O [propan-2-ol] + CCCCCC[n+]1ccn(C)c1.O=S(=O)([N-]S(=O)(=O)C(F)(F)F)C(F)(F)F; 1.33
CCCCC(=O)OC [methyl pentanoate] + CCCCCC[n+]1ccn(C)c1.O=S(=O)([N-]S(=O)(=O)C(F)(F)F)C(F)(F)F; 1.03

Attention now shifts to the item below.
Let me know recorded activity coefficient for C1=CCCCC1 [cyclohexene] + CCCCCC[n+]1ccn(C)c1.O=S(=O)([N-]S(=O)(=O)C(F)(F)F)C(F)(F)F , thanks.
2.94
